molecular target: Voltage gated sodium channel (Nav1.5 channel) encoded by SCN5A gene (Homo sapiens, UniProt Q14524); construct: expressed in transfected cells; host or cells: HEK cells; assay: Nav test (QPatch whole cell patch clamp); type: cell-based; conditions: HEK cells expressing Nav1.5, applied 5 minutes or more, room temperature
Sequence (Q14524 whole entry): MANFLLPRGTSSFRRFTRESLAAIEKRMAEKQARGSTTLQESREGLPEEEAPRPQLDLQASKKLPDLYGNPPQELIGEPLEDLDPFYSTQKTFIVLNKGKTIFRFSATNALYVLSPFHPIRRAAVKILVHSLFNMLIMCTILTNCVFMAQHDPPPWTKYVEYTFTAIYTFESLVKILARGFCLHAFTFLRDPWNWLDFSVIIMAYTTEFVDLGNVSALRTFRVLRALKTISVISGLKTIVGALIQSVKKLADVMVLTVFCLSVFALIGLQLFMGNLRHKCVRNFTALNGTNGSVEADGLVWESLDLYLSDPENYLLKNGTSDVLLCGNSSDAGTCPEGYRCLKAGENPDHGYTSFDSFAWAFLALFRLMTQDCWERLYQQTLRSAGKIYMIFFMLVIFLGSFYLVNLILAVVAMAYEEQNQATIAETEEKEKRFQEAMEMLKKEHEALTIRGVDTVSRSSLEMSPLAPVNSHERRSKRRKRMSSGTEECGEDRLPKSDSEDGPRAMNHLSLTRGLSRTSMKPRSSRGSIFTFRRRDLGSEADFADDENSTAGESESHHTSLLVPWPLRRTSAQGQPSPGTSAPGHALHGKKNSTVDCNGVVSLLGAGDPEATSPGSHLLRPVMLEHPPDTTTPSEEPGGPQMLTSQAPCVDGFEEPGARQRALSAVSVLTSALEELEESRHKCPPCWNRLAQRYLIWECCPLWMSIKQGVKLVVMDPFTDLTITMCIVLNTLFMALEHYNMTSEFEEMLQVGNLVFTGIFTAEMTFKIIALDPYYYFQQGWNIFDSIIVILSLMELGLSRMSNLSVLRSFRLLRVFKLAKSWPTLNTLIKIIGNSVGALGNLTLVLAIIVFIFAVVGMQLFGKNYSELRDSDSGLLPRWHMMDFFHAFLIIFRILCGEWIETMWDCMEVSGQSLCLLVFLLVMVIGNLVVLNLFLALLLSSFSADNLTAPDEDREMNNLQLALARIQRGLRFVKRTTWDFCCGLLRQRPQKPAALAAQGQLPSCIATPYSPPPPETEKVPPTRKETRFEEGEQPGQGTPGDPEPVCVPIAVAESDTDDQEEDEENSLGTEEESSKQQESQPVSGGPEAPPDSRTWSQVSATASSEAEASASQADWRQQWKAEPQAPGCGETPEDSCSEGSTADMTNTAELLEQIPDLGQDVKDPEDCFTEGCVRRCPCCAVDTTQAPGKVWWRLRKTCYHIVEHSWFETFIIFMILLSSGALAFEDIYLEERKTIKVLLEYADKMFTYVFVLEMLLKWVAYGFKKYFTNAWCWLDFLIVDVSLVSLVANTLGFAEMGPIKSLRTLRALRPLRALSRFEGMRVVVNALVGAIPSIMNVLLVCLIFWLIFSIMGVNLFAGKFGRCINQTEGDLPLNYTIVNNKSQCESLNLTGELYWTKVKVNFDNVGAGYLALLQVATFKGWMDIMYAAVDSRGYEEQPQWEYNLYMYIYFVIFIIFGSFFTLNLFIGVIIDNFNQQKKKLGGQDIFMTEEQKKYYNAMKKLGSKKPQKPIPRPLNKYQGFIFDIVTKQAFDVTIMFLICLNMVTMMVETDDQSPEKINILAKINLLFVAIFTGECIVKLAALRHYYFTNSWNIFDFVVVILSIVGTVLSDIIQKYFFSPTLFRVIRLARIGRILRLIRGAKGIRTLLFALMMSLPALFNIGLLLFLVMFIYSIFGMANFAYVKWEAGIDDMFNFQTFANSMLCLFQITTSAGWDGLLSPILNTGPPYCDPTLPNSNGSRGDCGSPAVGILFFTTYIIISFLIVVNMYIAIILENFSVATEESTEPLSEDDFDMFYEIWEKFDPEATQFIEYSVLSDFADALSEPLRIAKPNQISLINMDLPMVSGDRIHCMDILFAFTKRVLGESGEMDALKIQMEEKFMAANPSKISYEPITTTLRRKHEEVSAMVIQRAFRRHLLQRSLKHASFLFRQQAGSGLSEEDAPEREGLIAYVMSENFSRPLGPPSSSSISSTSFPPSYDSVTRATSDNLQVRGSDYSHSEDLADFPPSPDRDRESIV
measured attribute: ratio of maximum peak current (INa) with compound relative to medium (%)
Return type: number; implicit unit %.

Example cases with answers are listed next.
CCN1C(=O)c2c(O)c(=O)c(-c3nnc(Cc4ccc(F)cc4)s3)cn2N2[C@H](COC)CC[C@@H]12 : 86.2
CN1C(=O)c2c(O)c(=O)c(-c3nnc(Cc4ccc(F)cc4F)s3)cn2N2CCCC[C@@H]12 : 96.7

Consider CCN1C(=O)c2c(O)c(=O)c(-c3nnc(Cc4ccc(F)cc4F)s3)cn2N2C[C@@H](C)C[C@@H]12 . Its measured ratio of maximum peak current (INa) with compound relative to medium is 93.3

Consider C[C@H]1CC[C@H]2N(C)C(=O)c3c(O)c(=O)c(-c4nnc(Cc5ccc(F)cc5F)s4)cn3N2C1 . Its measured ratio of maximum peak current (INa) with compound relative to medium is 78.8
